Entries and their measured Mice Surviving on Day 7 follow.
# protocol text: Acute in vivo toxicity in mice, intraperitoneal injection
# particulars: 40 mg/kg intraperitoneal, in 10% w/v hydroxypropyl-β-cyclodextrin in 0.9% w/v saline, 5 mice

In the examples that follow, each entry is paired with its recorded Mice Surviving on Day 7.
>>> observed_result("Cn1cc(-c2cc(C(=O)NCCN)c3cc(C#CCN4CCCCC4)c(Cl)cc3n2)c2cc(Br)ccc21 [Example 419]")
"40%"
>>> observed_result("Fc1ccc2c(-c3cc(Cl)c4ccc(Cl)cc4n3)c[nH]c2c1 [Example 461]")
"100%"
>>> observed_result("NCCNC(=O)c1cc(-c2c[nH]c3ccc(Br)cc23)nc2cc(Cl)ccc12 [Example 316]")
"80%"

Lookup: Using the record for NCCNC(=O)c1cc(-c2c[nH]c3ccc(Br)cc23)nc2ccc(I)cc12 [Example 107] , state its measured Mice Surviving on Day 7.
Found: 100%

Lookup: Determine from records and report Mice Surviving on Day 7 for Clc1ccc2[nH]cc(-c3cc(Cl)c4ccccc4n3)c2c1 [Example 342]
Found: 100%

Lookup: Provide Mice Surviving on Day 7 value for the following compound: NCCNC(=O)c1cc(-c2c[nH]c3ccc(Br)cc23)nc2cc(Cl)c(C#CCN3CCCCC3)cc12 [Example 380]
Found: 100%

Lookup: Quickly give me recorded Mice Surviving on Day 7 for Cn1cc(-c2cc(C(=O)NCCN)c3ccc(Cl)cc3n2)c2cc(Br)ccc21 [Example 420]
Found: 100%

Lookup: Give Mice Surviving on Day 7 for Cc1ccc2[nH]cc(-c3cc(Cl)c4ccc(Cl)cc4n3)c2c1 [Example 474]
Found: 100%

* * *

# Tested on: methicillin-resistant Staphylococcus aureus (MRSA)
# protocol text: Determination of MIC values (BHI broth, 96 well microtiter plate)
# Type: cell-based
# particulars: Staphylococcus aureus, MRSA; BHI broth, overnight 37° C.; read-out: MIC MRSA
# Lookup of reported MIC keyed by entry

>>> observed_result("CN1CCN(CC#Cc2ccc3nc(-c4cn(C)c5ccc(Br)cc45)cc(C(=O)NCc4ccc(CN)cc4)c3c2)CC1 [Example 395]")
"< 7 µg/mL"

Lookup: Give the reported MIC for this molecule. CCOC(=O)n1cc(-c2cc(C(=O)NCc3ccc(CN)cc3)c3cc(C#CCN4CCCCC4)ccc3n2)c2cc(Br)ccc21 [Example 337]
Found: > 25 µg/mL

Lookup: Tell me its MIC given Cc1cccc2c(-c3ccc4cc(Cl)ccc4n3)c[nH]c12 [Example 291] as the entry.
Found: > 25 µg/mL

Lookup: Indicate the recorded MIC value for this molecule: NCCNC(=O)c1cc(-c2c[nH]c3ccc(Br)cc23)nc2cc(Cl)c(C#CCN3CCCCC3)cc12 [Example 380]
Found: < 7 µg/mL

Lookup: Supply reported MIC belonging to this molecule: Cn1cc(-c2cc(C(=O)NCC3CCCC(CN)C3)c3cc(I)ccc3n2)c2cc(Br)ccc21 (centres unmarked) [Example 358]
Found: < 7 µg/mL

Lookup: Find the measured MIC of NCC1CCCC(CNC(=O)c2cc(-c3c[nH]c4ccc(Br)cc34)nc3cc(Cl)cc(Cl)c23)C1 (centres unmarked) [Example 248] and report it.
Found: < 7 µg/mL

Lookup: Supply measured MIC of Oc1ccc2[nH]cc(-c3cc(Cl)c4ccccc4n3)c2c1 [Example 347] in your reply.
Found: < 25 µg/mL

Lookup: Identify measured MIC corresponding to NCc1cccc(CNC(=O)c2cc(-c3c[nH]c4ccc(Br)cc34)nc3ccc(C#CCN4CCCC4)cc23)c1 [Example 242]
Found: < 7 µg/mL
